Assign boiling point to each entry below.
Give bare numbers, in °C.

CC1(C)CCCC(O)C1 (centres undefined)
185
c1ccc(CC2CCNCC2)cc1
270
FC(Br)Br
64.9

Query molecule follows.
Ask: Return value of boiling point for input O=S(=O)(Cl)CCCl , no commentary.
Result: 202

###

Exercise: for every item that follows, state its recorded boiling point.
One number for each entry, in °C.

See these solved cases before continuing.
CC(C)(C)CO
114
Cc1cccnn1
214
CC(C)OP(=O)(OC(C)C)OC(C)C
219
CCC(CC)CC(C)(C)C
147
Cc1ccc(CC=O)cc1
222

Look up boiling point for the entries below, preserving their order.
1. COc1cccc(S)c1
2. Cc1ccc(S(=O)(=O)c2ccc(C)cc2)cc1
3. O=C1CCC(=O)N1
4. Clc1cccc(C(Cl)(Cl)Cl)c1

Result:
224
406
288
255

Would you mind listing boiling point for each of the following compounds?
1. O=S(=O)(O)C(F)(F)C(F)(F)C(F)(F)C(F)(F)C(F)(F)C(F)(F)F
2. COC(=O)c1cccc(I)c1
3. CCOc1cc(Cl)c(N)c(Cl)c1

Result:
238
277
275

I would be grateful if you could provide boiling point for each of the following entries.
1. CNC(C)CCC=C(C)C (centres undefined)
2. FC(I)I
3. C1CCN(CCN2CCCCC2)CC1
4. CCCCCCCCCCCCCS
5. CC(=O)I
6. CC1CCCCCCCCCCCCC(=O)C1 (centres undefined)
7. O=Cc1ccc(O)cc1
8. COc1cccc(C)c1

Result:
[177, 100, 265, 291, 108, 329, 310, 176]

# per-item lookup of boiling point; items listed below
1. O=C(CCl)c1ccccc1
2. CC(Br)CCl (centres undefined)
3. CC(C)=O
4. c1ccc(C2CO2)cc1 (centres undefined)
5. CCCNC(=O)OCC
6. CCCc1ccccc1N
7. CCCCCCC(=O)OC(=O)CCCCCC
8. CCCCOC=O

Result:
1: 247; 2: 118; 3: 55.8; 4: 194; 5: 192; 6: 226; 7: 270; 8: 106

Ask: Name the recorded boiling point of the item O=[N+]([O-])c1c(Cl)c(Cl)cc(Cl)c1Cl in your answer.
Result: 304

###

Details: fish
ASSAY ENDPOINT: log10 biotransformation half-life (days)
One number for each entry.

Worked cases, answers included:
Brc1ccc(-c2ccc(Br)cc2)cc1
1.57
Nc1ccccc1-c1ccccc1
-1.06
Cc1cc(C(C)(C)C)c(O)c(C(C)(C)C)c1
0.32

Dear colleague, could you send me log10 biotransformation half-life (days) for each of the items below? Thanks.
1. Cc1ccccc1S(N)(=O)=O
2. Cc1cccc([N+](=O)[O-])c1
3. O=[N+]([O-])c1cc(Cl)c(Cl)c(Cl)c1Cl
4. BrC(Br)Br
5. Cc1cc2ccccc2cc1C
6. [2H]C([2H])([2H])C([2H])([2H])C([2H])([2H])C([2H])([2H])C([2H])([2H])C([2H])([2H])C([2H])([2H])C([2H])([2H])C([2H])([2H])C([2H])([2H])C([2H])([2H])C([2H])([2H])C([2H])([2H])C([2H])([2H])C([2H])([2H])C([2H])([2H])[2H]
7. C1CCCCCCCCCCC1
8. Clc1ccc2c(c1)Oc1ccc(Cl)cc1O2

Result:
1: -0.89; 2: -0.79; 3: -0.69; 4: -0.7; 5: 0.03; 6: 1.47; 7: 1.33; 8: 0.23

Batch request: log10 biotransformation half-life (days) per item, same order as input.
1. Clc1ccc(-c2c(Cl)c(Cl)c(Cl)c(Cl)c2Cl)c(Cl)c1Cl
2. CC12CCCC1C1CCC3CCCCC3(C)C1CC2 (stereo not given)

Result:
2.54
1.67
